# Test system: MDA-MB-231 breast
# experiment.summary: NCI-60 one-dose screen, 48 h
# stated.conditions: 10 µM unless noted
The panel holds about 83,000 compounds, 20% with a hit somewhere; the sample as a whole holds those more often. Calls of active or inactive are those of the source. How the source made its calls: active means growth percent below 10; inactive means the rest.
Give one outcome, nothing more. List: T for active, F for inactive

Completed entries (count: 3):
# molecule, study.target, category.label
records = [
    ("Cc1ccc(NC(=O)N[C@@H](Cc2cc(F)cc(F)c2)C(=O)NC2C(=O)N3C[C@H](O)C[C@H]3C(=O)N3CCCC[C@H]3C(=O)N[C@@H](CO)C(=O)N3C[C@H](C)C[C@H]3C(=O)O[C@H]2C)c(F)c1 (some centres undefined)", "MDA-MB-231 breast", "F"),
    ("Nc1nc(-c2cccc([N+](=O)[O-])c2)c(N=Nc2ccc(Br)cc2)s1", "MDA-MB-231 breast", "T"),
    ("ClC(Cl)c1nc(-c2ccco2)n2nc(-c3ccccc3)cc2n1", "MDA-MB-231 breast", "T"),
]

Lab log entry: "COc1cc(OC)c(S(N)(=O)=O)cc1C(C)=O" — outcome as called in the assay? F

// next record "NS(=O)(=O)c1ccc(Nc2nc(N/N=C/c3c[nH]c4ccccc34)nc(Nc3ccccc3)n2)cc1" F

Also "C=C(C=O)[C@@H]1CC[C@]2(CO)CC[C@]3(C)[C@H](CC[C@@H]4[C@@]5(C)CCCNC(C)(C)[C@@H]5CC[C@]43C)[C@@H]12" ? F

Same question for "COc1ccc2c(c1)c(CC(=O)[Se]CCC#N)c(C)n2C(=O)c1ccc(Cl)cc1" please. T

Same read-out for "CCOc1cccc(-c2nc3sccn3c2-c2ccnc(S(C)(=O)=O)n2)c1" ? F

Again, but for "CCCCCc1ccc(S(=O)(=O)Nc2cc(-c3csc(NC(=O)CN4CCN(CCO)CC4)n3)ccc2OC)cc1" F

Note, next up: "CC1=NC2=NC(=O)/C(=C3/N=C(C)C=C(c4ccccc4)N3N)NN2C(c2ccccc2)=C1" F

Same read-out for "COc1ccc(CCN2C(=O)CSC2=S)cc1" ? F

Field entry: "COc1ccc(-n2c(SCc3nnc(NC(=O)c4ccc(Br)cc4)s3)nc3cc(OC)c(OC)cc3c2=O)cc1" F

And the next one, "NS(=O)(=O)c1ccc(Nc2nc(SCC(=O)c3ccc(Cl)cc3)nc3c2CCCC3)cc1" ? F

What do you have for CNC1CCc2c(sc(NC(=O)c3ccc(C(C)(C)C)cc3)c2C(N)=O)C1 (centres undefined) ? F

====

Form field: growth (one value per entry).
# Tested on: OVCAR-5 ovarian
# experiment.summary: NCI-60 one-dose screen, 48 h (100 = growth as untreated, 0 = no growth, -100 = all killed)
# stated.conditions: 10 µM unless noted
Compounds without any hit were thinned out: in the full panel of roughly 83,000, 20% have a hit. Calls of active or inactive are those of the source. Rule for the calls: active = growth percent below 10; inactive = the rest.

Please review the entries below; each comes with its answer.
# molecule, growth
records = [
    ("C=CCN(C)S(=O)(=O)/N=C1\\NC(=O)NC1=C(Cl)Cl", "-37.5% (active)"),
    ("COc1ccc(/C=N/NC(=O)c2cn(C3CC3)c3c(OC)c(N4CC5CCCNC5C4)c(F)cc3c2=O)cc1 (stereo not given)", "97.5% (inactive)"),
    ("CCCSc1nc(Nc2ccc(/C(C)=N\\NC(N)=S)cc2)c(C#N)c(-c2ccccc2)n1", "85.5% (inactive)"),
    ("Cc1ccc(C2=Nn3c(nnc3-c3ccccc3)SC2)cc1", "62.9% (inactive)"),
]

If you can, please state the reported growth value of "CN(C)CCN(C)c1ccc2ncc(C#Cc3cncc(C(=O)Nc4ccc(CN5CCN(C)CC5)c(C(F)(F)F)c4)c3)n2n1" . 91.5% (inactive)

// query: "COc1ccc([C@H]2c3[nH]c4ccccc4c3C[C@H]3C(=O)N(C4CCN(Cc5c(Cl)cccc5Cl)CC4)CC(=O)N23)c(OC)c1" 96.7% (inactive)

Next up: "COc1cc(OC)c(S(N)(=O)=O)cc1C(=O)/C=C/c1ccc(C)cc1" 13.4% (inactive)

Quick one: "Cc1cc(C)n(C(=O)c2sc(=S)n(-c3ccccc3)c2N=Nc2c(N)n[nH]c2N)n1" 101% (inactive)

Please answer likewise for "NC/C(=C/F)COc1ccc2nc(NCc3cccnc3)oc2c1" 113% (inactive)

COc1c(N2CC3CCCNC3C2)c(F)cc2c(=O)c(C(=O)N/N=C/c3c[nH]c4ccccc34)cn(C3CC3)c12 (stereo not given) , same question. 116% (inactive)

Also check "C=C(C=O)[C@@H]1CC[C@]2(C)[C@H](CC=C3[C@H]4[C@@H](C)[C@H](C)CC[C@]4(C(=O)OC)CC[C@]32C)[C@@]1(C)CCC#N" 2.05% (active)

How about "O=C(Nc1nc2ccc([N+](=O)[O-])cc2s1)Nc1ccccc1Br" ? 84.4% (inactive)

Same for "NC(N)=Nc1ccc(Oc2cccc(NC(N)=Nc3ccc(Br)c(C(F)(F)F)c3)c2)cc1" 45.1% (inactive)

Moving on to the next molecule: "O=C(NNc1nc2cc(F)ccc2n2c(CN3CCCC3)ccc12)c1cnccn1" 33.5% (inactive)

Cool, now "CCOP(=O)(OCC)OC[C@]12CCC(C)(C)C=C1[C@H]1CC[C@@H]3[C@@]4(C)CC[C@H](OP(=O)(OCC)OCC)C(C)(C)[C@@H]4CC[C@@]3(C)[C@]1(C)CC2" -26.8% (active)

Item: "O=C1[C@H]2Cc3c([nH]c4ccccc34)[C@@H](c3ccc(Br)cc3)N2C(=O)CN1C1CCN(CC2CCCCC2)CC1" -84.6% (active)

Try this molecule too: "C#CCOC(=O)[C@@H]1CCCN1CC#C" 103% (inactive)

Continue with "COc1ccc(-n2c(/C=C3\C(=O)Nc4ccccc43)ccc2CO)cc1" 107% (inactive)

====

# Tested on: K-562 leukemia
# experiment.summary: NCI-60 one-dose screen, 48 h (100 = growth as untreated, 0 = no growth, -100 = all killed)
# stated.conditions: 10 µM unless noted
About 83,000 compounds went through this panel and 20% of them were active in at least one assay; those are over-represented in the sample as a whole.
Listed here: items and their measured growth.
Dear colleague, please return just the value in %, with no unit written.

The examples below pair each entry with its known result.
# compound, observed.measurement
data = [
    ("COc1ccc(C(=O)c2c(N)c(C#N)cn2-c2ccccc2OC)cc1", 13.3),
    ("N/C(=N\\C(N)=N\\c1nc2ccccc2s1)c1ccncc1Cl", 17.1),
]

May I ask what growth has been recorded for "COc1ccc2c(c1)c(-c1cc(N)n3nc(-c4cn(C)c5ccc(OC)cc45)cc3n1)cn2C" ? -16.6

Same question for "CCNC(=O)Oc1ccc(/C(=C(/C)c2ccccc2)c2ccc(OCCN3CCCCCC3)cc2)cc1" please. 2.41

Similarly, COc1ccc(CCOc2cc3c(cc2OC)CCN(C(=O)NCc2cocn2)C3c2ccc(C)cc2C)cc1 (centres undefined) ? 10

Next up: CC1=CC(=O)C2=C(C)CC(OC(=O)CCc3ccccc3)[C@@H]3[C@H](OC(=O)[C@@H]3C)[C@@H]12 (some centres undefined) 84.2

// same read-out, input: "CCOC(=O)c1c(Nc2ccccc2)nn2c(-c3ccc(Cl)cc3)ccnc12" 81.1

====

Here the recorded growth is given for each entry.
# Tested on: IGROV1 ovarian
# experiment.summary: NCI-60 one-dose screen, 48 h (100 = growth as untreated, 0 = no growth, -100 = all killed)
# stated.conditions: 10 µM unless noted
This is part of a sample that, as a whole, favours compounds with a hit. Of some 83,000 tested, about 20% had one in any assay. Active and inactive are the calls of the source. How the source made its calls: active means growth percent below 10; inactive means the rest.

Example results:
# compound, growth
rows = [
    ("O=C(Nc1nc2ccc([N+](=O)[O-])cc2s1)Nc1ccccc1Cl", "39.1% (inactive)"),
    ("CCCn1cnc2c(c1=N)C(c1ccc(F)cc1)c1sc3c(C)cccc3c1O2 (stereo not given)", "25.2% (inactive)"),
    ("O=S(=O)(Nc1ccc(I)cc1Cl)c1ccc(-c2cnc(C3CC3)o2)cc1", "43.2% (inactive)"),
]

Quick check: growth of "O=c1c2ccccc2nc(COc2ccccc2)n1NS(=O)(=O)c1ccc(Cl)cc1" ? 61.7% (inactive)

Then what about the compound "NC/C(=C/F)COc1ccc2nc(NCc3cccnc3)oc2c1" ? 86.4% (inactive)

====

# Test system: OVCAR-5 ovarian
# experiment.summary: NCI-60 one-dose screen, 48 h
# stated.conditions: 10 µM unless noted
The panel holds about 83,000 compounds, 20% with a hit somewhere; the sample as a whole holds those more often. Active and inactive are the calls of the source. Rule for the calls: active = growth percent below 10; inactive = the rest.
Lab note: assign the record to one of active, inactive

Use the examples below as a reference point.
# molecule, category.label
data = [
    ("CC1(C)CC[C@]2(CN)CC[C@]3(C)C(=CC[C@@H]4[C@@]5(C)CCCNC(C)(C)[C@@H]5CC[C@]43C)[C@H]2C1", "inactive"),
    ("CC(=O)Nc1cccc(Nc2nc(N[C@@H](C)c3ccccc3)c3ccccc3n2)c1", "inactive"),
    ("Cc1ccc2c(c1)Oc1nc(N)c(C#N)c(N)c1C2Sc1ccc(F)cc1 (stereo not given)", "active"),
]

We now examine a further molecule.
Recorded test call requested for "N#Cc1cccc(/C(N)=N/C(N)=N/c2nc3ccccc3s2)c1" inactive
